- Tested on: Enterobacter
- test.method.notes: In vitro antibacterial activity against Enterobacter relative to thienamycin
- Assay type: functional
In this section we review reported Relative potency values for a set of molecules.
Please respond with just the number, no unit label.

Lab note: C[C@@H](O)[C@H]1C(=O)N2C(C(=O)[O-])=C(c3ccc(C[n+]4cccc(N)c4)cc3)C[C@H]12 gave Relative potency of 11.3

Lab note: C[C@@H](O)[C@H]1C(=O)N2C(C(=O)[O-])=C(c3ccc(C[n+]4ccc5ccccc5c4N)cc3)C[C@H]12 gave Relative potency of 2.3

----------
- Tested on: Escherichia coli
- test.method.notes: In vitro antibacterial activity against Escherichia coli relative to thienamycin
- Type: functional
Please respond with YES when measured Relative potency is strictly beneath 4, and with NO in all other cases.

A selection of reference data follows.
[[record]]
compound = "C[C@@H](O)[C@H]1C(=O)N2C(C(=O)O)=C(c3ccc(CN4CCOCC4)cc3)C[C@H]12"
qualitative_label = "YES"

[[record]]
compound = "C[C@@H](O)[C@H]1C(=O)N2C(C(=O)O)=C(c3ccc(CN4CCCCC4)cc3)C[C@H]12"
qualitative_label = "YES"

[[record]]
compound = "CC(O)[C@H]1C(=O)N2C(C(=O)O)=C(c3ccc(CN)cc3)C[C@H]12 (stereo not given in full)"
qualitative_label = "YES"

[[record]]
compound = "C[C@@H](O)[C@H]1C(=O)N2C(C(=O)[O-])=C(c3ccc(C[n+]4ccc(CN)cc4)cc3)C[C@H]12"
qualitative_label = "YES"

[[record]]
compound = "C[C@@H](O)[C@H]1C(=O)N2C(C(=O)[O-])=C(c3ccc(C[n+]4ccc(N5CCCC5)cc4)cc3)C[C@H]12"
qualitative_label = "YES"


q: In the record for C[C@@H](O)[C@H]1C(=O)N2C(C(=O)[O-])=C(c3ccc(C[n+]4cccc(C(F)(F)F)c4)cc3)C[C@H]12 , is Relative potency less than 4?
a: YES

q: In the record for C[C@@H](O)[C@H]1C(=O)N2C(C(=O)[O-])=C(c3ccc(C[n+]4ccc(CCS(=O)(=O)[O-])cc4)cc3)C[C@H]12.[K+] , is Relative potency less than 4?
a: NO

q: In the record for C[C@@H](O)[C@H]1C(=O)N2C(C(=O)[O-])=C(c3ccc(C[n+]4cccc(C(=O)N(C)C)c4)cc3)C[C@H]12 , is Relative potency less than 4?
a: YES

q: In the record for C[C@@H](O)[C@H]1C(=O)N2C(C(=O)[O-])=C(c3ccc(C[n+]4ccc(N5CCCCC5)cc4)cc3)C[C@H]12 , is Relative potency less than 4?
a: YES

q: In the record for C[C@@H](O)[C@H]1C(=O)N2C(C(=O)[O-])=C(c3ccc(C[n+]4ccc5ccccc5c4)cc3)C[C@H]12 , is Relative potency less than 4?
a: NO

----------
- Tested on: Escherichia coli
- test.method.notes: In vitro antibacterial activity against Escherichia coli relative to thienamycin
- Format: functional
Please respond with condition met when measured Relative potency is strictly beneath 4, and with condition not met in all other cases.

[[record]]
molecular_string = "C[C@@H](O)[C@H]1C(=O)N2C(C(=O)[O-])=C(c3ccc(C[n+]4cccc5ccccc54)cc3)C[C@H]12"
qualitative_label = "condition not met"

[[record]]
molecular_string = "CSCc1ccc[n+](Cc2ccc(C3=C(C(=O)[O-])N4C(=O)[C@H]([C@@H](C)O)[C@H]4C3)cc2)c1"
qualitative_label = "condition not met"

[[record]]
molecular_string = "C[C@@H](O)[C@H]1C(=O)N2C(C(=O)[O-])=C(c3ccc(C[n+]4ccccc4)cc3)C[C@H]12"
qualitative_label = "condition met"


q: In the record for C[C@@H](O)[C@H]1C(=O)N2C(C(=O)[O-])=C(c3ccc(C[N+]4(C)CCCCC4)cc3)C[C@H]12 , is Relative potency less than 4?
a: condition not met

q: In the record for CSc1ccc[n+](Cc2ccc(C3=C(C(=O)[O-])N4C(=O)[C@H]([C@@H](C)O)[C@H]4C3)cc2)c1 , is Relative potency less than 4?
a: condition not met

----------
- Test system: Enterobacter
- test.method.notes: In vitro antibacterial activity against Enterobacter relative to thienamycin
- Type: functional
endpoint: Relative potency
Please respond with just the number, no unit label.

[[record]]
compound = "C[C@@H](O)[C@H]1C(=O)N2C(C(=O)[O-])=C(c3ccc(C[n+]4cccc(CSCCC#N)c4)cc3)C[C@H]12"
experimental_result = 8.6

[[record]]
compound = "CC(O)[C@H]1C(=O)N2C(C(=O)O)=C(c3ccc(CN)cc3)C[C@H]12 (some centres undefined)"
experimental_result = 11

[[record]]
compound = "C[C@@H](O)[C@H]1C(=O)N2C(C(=O)[O-])=C(c3ccc(C[n+]4ccc(N)cc4)cc3)C[C@H]12"
experimental_result = 11.3


// moving on: another record for Relative potency
Lab note: C[C@@H](O)[C@H]1C(=O)N2C(C(=O)[O-])=C(c3ccc(C[N+]4(C)CCOCC4)cc3)C[C@H]12 gave Relative potency of 5.7

----------
- measured.target: UniProt P22412
- test.method.notes: Susceptibility of compound towards porcine Dehydropeptidase-1 relative to imipenem as […] was calculated
endpoint: Susceptibility

[[record]]
molecular_string = "C[C@@H](O)[C@H]1C(=O)N2C(C(=O)[O-])=C(c3ccc(C[n+]4cccc(CSCCC#N)c4)cc3)C[C@H]12"
endpoint = "Susceptibility"
experimental_result = 0.05

[[record]]
molecular_string = "C[C@@H](O)[C@H]1C(=O)N2C(C(=O)[O-])=C(c3ccc(C[n+]4cccc(C#N)c4)cc3)C[C@H]12"
endpoint = "Susceptibility"
experimental_result = 0.06

[[record]]
molecular_string = "C[C@@H](O)[C@H]1C(=O)N2C(C(=O)[O-])=C(c3ccc(C[n+]4cccc(N)c4)cc3)C[C@H]12"
endpoint = "Susceptibility"
experimental_result = 0.09


// moving on: another record for Susceptibility
Lab note: C[C@@H](O)[C@H]1C(=O)N2C(C(=O)[O-])=C(c3ccc(C[n+]4ccccc4)cc3)C[C@H]12 gave Susceptibility of 0.07

----------
- measured.target: Dipeptidase 1 (Sus scrofa)
- Sequence (whole entry): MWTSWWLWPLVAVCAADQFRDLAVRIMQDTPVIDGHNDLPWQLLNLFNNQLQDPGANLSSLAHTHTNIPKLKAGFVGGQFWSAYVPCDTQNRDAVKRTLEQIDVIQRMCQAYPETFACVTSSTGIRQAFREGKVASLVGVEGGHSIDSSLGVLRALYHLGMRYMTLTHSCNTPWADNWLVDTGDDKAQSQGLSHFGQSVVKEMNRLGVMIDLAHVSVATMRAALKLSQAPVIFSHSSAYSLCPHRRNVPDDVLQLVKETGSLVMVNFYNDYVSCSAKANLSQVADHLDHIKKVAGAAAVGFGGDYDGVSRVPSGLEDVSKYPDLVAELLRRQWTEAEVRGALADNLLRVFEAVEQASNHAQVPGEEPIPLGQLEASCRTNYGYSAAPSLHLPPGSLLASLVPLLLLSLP
- test.method.notes: Susceptibility of compound towards porcine Dehydropeptidase-1 relative to imipenem as […] was calculated
Would you mind sorting the entries by Susceptibility according to these classes? lower level (below 0.04), middle level (0.04 to below 0.1), upper level (0.1 or more)

A selection of reference data follows.
[[record]]
compound = "C[C@@H](O)[C@H]1C(=O)N2C(C(=O)[O-])=C(c3ccc(C[n+]4ccccc4N)cc3)C[C@H]12"
qualitative_label = "upper level"

[[record]]
compound = "C[C@@H](O)[C@H]1C(=O)N2C(C(=O)[O-])=C(c3ccc(C[n+]4ccc(N5CCCCC5)cc4)cc3)C[C@H]12"
qualitative_label = "upper level"

[[record]]
compound = "C[C@@H](O)[C@H]1C(=O)N2C(C(=O)O)=C(SCCNC=N)C[C@H]12.O [IMIPENEM]"
qualitative_label = "upper level"


q: Bin this entry: C[C@@H](O)[C@H]1C(=O)N2C(C(=O)[O-])=C(c3ccc(C[n+]4ccc5ccccc5c4)cc3)C[C@H]12
a: middle level

q: Bin this entry: C[C@H](O)[C@H]1C(=O)N2C(C(=O)O)=C(c3ccc(CN)cc3)C[C@H]12
a: lower level

q: Bin this entry: CSc1ccc[n+](Cc2ccc(C3=C(C(=O)[O-])N4C(=O)[C@H]([C@@H](C)O)[C@H]4C3)cc2)c1
a: middle level

q: Bin this entry: C[C@@H](O)[C@H]1C(=O)N2C(C(=O)[O-])=C(c3ccc(C[n+]4ccc(N)cc4)cc3)C[C@H]12
a: upper level

q: Bin this entry: C[C@@H](O)[C@H]1C(=O)N2C(C(=O)O)=C(SCCN)C[C@H]12 [THIENAMYCIN]
a: upper level

q: Bin this entry: C[C@@H](O)[C@H]1C(=O)N2C(C(=O)[O-])=C(c3ccc(C[n+]4ccc(CS(=O)(=O)[O-])cc4)cc3)C[C@H]12.[K+]
a: middle level

Origin of the recorded values: ChEMBL document CHEMBL1151043
